test system: CL 6569 (Klebsiella pneumoniae; KPC-2); assay: Synergy assay (checkerboard) with imipenem against K. pneumoniae strain CL6569; conditions: BLI concentration reducing the MIC of imipenem by a factor of 32, K. pneumoniae strain CL6569
VALUE_TYPE: 32X Synergy CL6569 (µM)
Provide only the numeric value, understood in µM.

COc1cc(NC(=O)[C@@H]2CC[C@@H]3CN2C(=O)N3OS(=O)(=O)O)ccn1 50
O=C(Nc1ccncc1)[C@@H]1CC[C@@H]2CN1C(=O)N2OS(=O)(=O)O 50
O=C(NC1CCNCC1)[C@@H]1CC[C@@H]2CN1C(=O)N2OS(=O)(=O)O 12.5
CN(C)c1cc(NC(=O)[C@@H]2CC[C@@H]3CN2C(=O)N3OS(=O)(=O)O)ccn1 25
O=C(N[C@@H]1CCNC1)[C@@H]1CC[C@@H]2CN1C(=O)N2OS(=O)(=O)O 100

Exercise: I would be grateful if you could share the reported 32X Synergy CL6569 for O=C(N[C@H]1CCCNCC1)[C@@H]1CC[C@@H]2CN1C(=O)N2OS(=O)(=O)O .
Key: 12.5

Exercise: I would be grateful if you could share the reported 32X Synergy CL6569 for NCc1ccc(NC(=O)[C@@H]2CC[C@@H]3CN2C(=O)N3OS(=O)(=O)O)cc1 .
Key: 6.25

====

molecular target: AmpC (P. aeruginosa) (Pseudomonas aeruginosa (strain ATCC 15692 / DSM 22644 / CIP 104116 / JCM 14847 / LMG 12228 / 1C / PRS 101 / PAO1), UniProt P24735); assay: biochemical; details: Table 3; read-out: P.a. AmpC IC50
Sequence (P24735 27-397): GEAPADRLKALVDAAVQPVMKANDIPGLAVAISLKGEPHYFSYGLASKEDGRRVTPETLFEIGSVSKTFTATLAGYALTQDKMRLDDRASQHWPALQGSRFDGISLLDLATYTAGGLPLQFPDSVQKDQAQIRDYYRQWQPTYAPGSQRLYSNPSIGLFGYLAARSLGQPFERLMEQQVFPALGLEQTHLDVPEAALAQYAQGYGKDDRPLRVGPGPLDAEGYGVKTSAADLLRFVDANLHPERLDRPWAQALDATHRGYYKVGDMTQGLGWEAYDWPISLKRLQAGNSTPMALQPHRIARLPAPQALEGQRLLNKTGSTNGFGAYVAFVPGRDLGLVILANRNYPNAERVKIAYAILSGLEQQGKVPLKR
VALUE_TYPE: pIC50
FYI, pIC50 means -log10 of a concentration in mol per litre.

Here's what some known entries look like.
NCc1ccc(OC(=O)[C@@H]2CC[C@@H]3CN2C(=O)N3OS(=O)(=O)O)cc1 7.62
O=C(O[C@@H]1CCCNCC1)[C@@H]1CC[C@@H]2CN1C(=O)N2OS(=O)(=O)O 4.48
CC1(COC(=O)[C@@H]2CC[C@@H]3CN2C(=O)N3OS(=O)(=O)O)CCNCC1 7.44
O=C(NCCC1CCNCC1)[C@@H]1CC[C@@H]2CN1C(=O)N2OS(=O)(=O)O 7.96
Nc1cccc(NC(=O)[C@@H]2CC[C@@H]3CN2C(=O)N3OS(=O)(=O)O)n1 8.10

Exercise: I would be grateful if you could share the reported pIC50 for O=C(Nc1nc2c(s1)CNCC2)[C@@H]1CC[C@@H]2CN1C(=O)N2OS(=O)(=O)O .
Key: 8.00

Exercise: I would be grateful if you could share the reported pIC50 for O=C(Nc1nccs1)[C@@H]1CC[C@@H]2CN1C(=O)N2OS(=O)(=O)O .
Key: 8.74

Exercise: I would be grateful if you could share the reported pIC50 for O=C(O[C@H]1CNOC1)[C@@H]1CC[C@@H]2CN1C(=O)N2OS(=O)(=O)O .
Key: 7.41

====

target: AmpC (P. aeruginosa) (Pseudomonas aeruginosa (strain ATCC 15692 / DSM 22644 / CIP 104116 / JCM 14847 / LMG 12228 / 1C / PRS 101 / PAO1)); test: biochemical; settings: Table 3; read-out: P.a. AmpC IC50
VALUE_TYPE: IC50 (nM)
Provide only the numeric value, understood in nM.

Here's what some known entries look like.
COMPOUND	RESULT_UNIT	TEST_RESULT
CN1CCC(NC(=O)[C@@H]2CC[C@@H]3CN2C(=O)N3OS(=O)(=O)O)CC1 [Example 23]	nM	500
O=C(Nc1cccc(C2CCNCC2)n1)[C@@H]1CC[C@@H]2CN1C(=O)N2OS(=O)(=O)O [Example 79]	nM	270
O=C(NCC1CCNCC1)[C@@H]1CC[C@@H]2CN1C(=O)N2OS(=O)(=O)O [Example 40]	nM	30
CN(C)Cc1ccc(NC(=O)[C@@H]2CC[C@@H]3CN2C(=O)N3OS(=O)(=O)O)cc1 [Example 62]	nM	18
NCc1ccc(NC(=O)[C@@H]2CC[C@@H]3CN2C(=O)N3OS(=O)(=O)O)nc1 [Example 77]	nM	3

Exercise: I would be grateful if you could share the reported IC50 for O=C(NCC1CCCCN1)[C@@H]1CC[C@@H]2CN1C(=O)N2OS(=O)(=O)O (stereo partly drawn) [Example 39] .
Key: 530
